# Test system: YANK2
# Construct: gene STK32B
# condition details: concentration: 1 μM, replicates: in singlicate; n = 1;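 also: KINOMEscan kinase panel screen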
assay endpoint: %Inh (%)

>>> print(df.to_string())
                                    molecule  value_observed
 0              Nc1n[nH]c2nnc(-c3ccccc3)cc12               0
 1  Cc1ccc(C)c(NC(=O)NCCNc2ccnc(Nc3ccc(F)cc3)n2)c1               0
 2  Cl.Fc1ccccc1COc1ccc(Nc2ncnc3ccc(-c4nnc(C(F)(F)F)o4)cc23)cc1Cl               0
 3                CCn1c(-c2ccncc2)nc2cnccc21               4
 4  Cc1ccc(NC(=O)c2cccc(C#N)c2)cc1-c1ccc(C(=O)Nc2ccncc2)cc1               0
 5    Clc1cccc(-c2nc(Nc3ccncc3)c3ccccc3n2)c1               0
 6  COC(=O)c1cccc(NC(=O)NCCNc2ccnc(Nc3ccc(F)cc3)n2)c1              20
 7  Cn1ccc2ncnc(Nc3ccc(Oc4cccc(Cl)c4)c(Cl)c3)c21              14
 8      Nc1nc(-c2ccccn2)c(-c2ccnc3ccccc23)s1               7
 9        CC(=O)Nc1n[nH]c2ncc(-c3ccccc3)cc12               0
10   Clc1cc(Nc2ncnc3cc[nH]c23)ccc1OCc1ccccn1               3
11  CNc1nccc(-c2c(-c3ccc(F)cc3)ncn2C2CCN(C)CC2)n1              17
12  Cl.O=S(=O)(c1cccc(F)c1)c1ccc(Nc2ncnc3cc(Br)sc23)cc1Cl               0
13  O=C(NCCCN1CCCC1=O)c1cnc(NCc2cc(Cl)ccc2Cl)nc1NC1CCNCC1               0
14  O=C(Nc1ccccc1F)NC1CCN(c2ccnc(Nc3ccc(F)cc3)n2)C1 (stereo not shown)               6
15  COc1ccc(-c2oc3ncnc(N)c3c2-c2ccc(OC)cc2)cc1              12
16  O=C(CCO)NCCn1ccc2ncnc(Nc3ccc(Oc4cccc(C(F)(F)F)c4)c(Cl)c3)c21               0
17   O=C(Nc1ccccc1)Nc1ccc(Oc2ccc3nccn3n2)cc1               0
18  Cl.Cn1ccc(-c2cccc(Nc3ccnc4cc(-c5nccs5)ccc34)c2)n1              10

###

# System: EPHB4
# condition details: concentration: 1 μM, replicates: in singlicate; n = 1
Below, each of the molecules is paired with its reported %Inh value.
assay endpoint: %Inh (%)

>>> print(df.to_string())
                                   molecule  experimental_target  value_observed
0  O=C(NCCCN1CCCC1=O)c1cnc(NCc2cc(Cl)ccc2Cl)nc1NC1CCNCC1                EPHB4               0
1  Oc1ccc2ncnc(Nc3ccc(OCc4ccccc4)cc3)c2c1 [GI262866]                EPHB4               2
2  COc1ccc(Nc2nccc(N3CCC(NC(=O)c4cccc(NC(C)=O)c4)C3)n2)cc1 (stereo not drawn) [GSK1379732]                EPHB4              11
3  Fc1cccc(COc2ccc(Nc3ncnc4cc[nH]c34)cc2Cl)c1                EPHB4              22
4  FC(F)(F)c1ccc(-c2cc(-c3c[nH]nc3-c3ccccn3)ccn2)cc1 [GW599550]                EPHB4               8
5  Cl.Cl.c1ccc(-c2cc3ccncc3cc2OC2CCNCC2)cc1 [GSK1122999]                EPHB4               5
6  CC(C)N1CCC(n2cnc(-c3ccc(F)cc3)c2-c2ccnc(N)n2)CC1 [SB-223132]                EPHB4              22
7  O=C(CCO)NCCn1ccc2ncnc(Nc3ccc(Oc4cccc(C(F)(F)F)c4)c(Cl)c3)c21                EPHB4               3
8  Fc1cccc(COc2ccc(Nc3ncnc4sc(-c5ccc[nH]5)cc34)cc2Cl)c1 [GW707818]                EPHB4               0
